Measured melting point, listed per entry for reference.
assayMetric: melting point

| molecule | assayMetric | result |
| --- | --- | --- |
| OCc1ccc(-c2ccc(O)cc2)c(-c2ccc(O)cc2)c1 | melting point | 214 °C |
| CCOC(=O)CCc1cc(OCC(=O)NNC(C)=O)nn1Cc1ccc(Cl)cc1Cl | melting point | 167 to 170 °C |
| Cc1cccc(-c2nc(N)c3ccccc3n2)n1 | melting point | 201 °C |
| COc1ccc(COC(=O)n2c(SCc3ccc(C)cn3)nc3cscc32)cc1 | melting point | 120 to 121 °C |
| O=C(NC(=O)c1c(F)cccc1Cl)Nc1ccc(Br)cn1 | melting point | 207 to 213 °C |
| CC(C)NC(=O)N1c2ccc(S(=O)(=O)n3cc(-c4ccccc4)[nH]c3=O)cc2CC1C (stereo not given) | melting point | 154 to 156 °C |
| COC(=O)c1cccc(Nc2nc(Cl)nc3[nH]cnc23)c1 | melting point | 242 °C |
| CCOC(=O)Nc1ccc2nc(OCC)oc(=O)c2c1 | melting point | 191 to 193 °C |
| CC1(C)NC(=O)N(CC(CS(=O)(=O)c2ccc(-c3ccc(Cl)cc3)cc2)C(=O)O)C1=O (stereo not given) | melting point | 242 to 245 °C |
| COc1ccc(C(=O)Nc2cccnc2)cc1NC(=S)Nc1ccc(Cl)c(Cl)c1 | melting point | 179 to 180 °C |
| CC(C)(C)c1cc(C(=O)NCc2cccc(N)c2)cc(C(C)(C)C)c1O | melting point | 171 to 172 °C |
| CCCc1c(OCCCS(=O)(=O)c2ccc(CC(=O)O)c(Cl)c2Cl)ccc(C(C)=O)c1O | melting point | 180 to 181 °C |
| COC(=O)Oc1ccc(F)cc1Br | melting point | 75 to 78 °C |
| O=[N+]([O-])c1cccc(C2=NCN(c3cccnc3)S2)c1 | melting point | 109 to 111 °C |
| CC(C)(C)c1ccc(C(=O)Nc2cn3c4c(ccc3n2)OCC4)cn1 | melting point | 246 to 248 °C |
| Fc1cccc(CSc2nnc(-c3ccc4c(c3)CCO4)o2)c1 | melting point | 128 to 129 °C |
| CCN(CC)C1CCN(c2ccc(-c3[nH]nc4c3C(=O)c3c(NC(=O)NN5CCOCC5)cccc3-4)cc2)CC1 | melting point | 251 °C |
| N=C(NCCOc1cccc2[nH]c3ccccc3c12)c1cccs1 | melting point | 180 to 181 °C |
| CCOC(CCP(=O)(OCC)OCC)(C(=O)c1ccccc1)c1ccccc1 (stereo not given) | melting point | 75 °C |
| CCCCCCc1cc2c(s1)-n1c(C)nnc1CN=C2c1ccc(C)c(C)c1 | melting point | 98 to 100 °C |
| NC(=O)CCCCn1cnc(NC(N)=NCC(F)(F)F)n1 | melting point | 162 to 164 °C |
| Cc1cnn(-c2ccccc2)c1-c1nn(-c2cccc(C(F)(F)F)c2)ccc1=O | melting point | 208 to 211 °C |
| CCOc1cccc(Oc2cccnc2C#N)c1 | melting point | 83 to 84 °C |
| Cc1cc(C)c(Nc2nc(C)ccc2S(=O)(=O)c2ccc(OCc3ccccc3)cc2)c(C)c1 | melting point | 158 to 160 °C |
| CS(=O)(=O)Cc1cnc2ccccc2c1O | melting point | 280 to 282 °C |
| O=C(OCCCc1ccc(OCc2ccc(Cl)cc2)cc1)c1cccnc1 | melting point | 109 to 110 °C |
| CCCCCCCCCCCCC[C@@H](CC(N)=O)OC(=O)[C@H](CCCC(=O)OCc1ccccc1)NC(=O)c1cnc2ccccc2c1 | melting point | 85 to 87 °C |
| Cc1cc(N)nc(CCc2nc3cc(-c4cccc(O)c4)cnc3[nH]2)c1 | melting point | 162 °C |
| CS(=O)(=O)N1CCOc2ccc(C3=NNC(=O)CC3)cc21 | melting point | 245 °C |
| O=[N+]([O-])c1ccc(Oc2ccc(C(F)(F)F)cn2)cc1NCP(=O)(O)O | melting point | 94 °C |
| COc1ccc(-c2ccnn2-c2ccc(N3C[C@H](CNC(C)=O)OC3=O)cc2F)cc1OC | melting point | 154 to 156 °C |
| O=c1[nH]c(=O)n([C@@H]2CO[C@H](CO)[C@@H](O)C2)cc1I | melting point | 219 to 220 °C |
| CCCCCCCCc1cc2c(cc1/C(C)=C/c1ccc(C(=O)O)cc1)C(C)(C)CCS2(=O)=O | melting point | 176 to 178 °C |
| Cc1nc(-c2cc3c4ccccc4n(CCCCl)c3cn2)no1 | melting point | 130 to 135 °C |
| CCNCC(=O)Nc1c(Cc2nccc3ccccc23)ccc(OC)c1OC | melting point | 107 to 108 °C |
| O=C1OC(c2ccccc2)=NC1=Cc1ccc(Oc2ccccc2)cc1 | melting point | 156 to 158 °C |
| C[C@H](NC(=O)Cc1ccc(F)cc1)C(=O)N[C@@H]1C(=O)Nc2ccccc2O[C@@H]1c1ccccc1 | melting point | 130 to 140 °C |
| N#Cc1ccc(NC2CCCCC2)c([N+](=O)[O-])c1 | melting point | 109 °C |
| COc1ccc(OCc2ccccc2)cc1C(=O)O | melting point | 114 to 116 °C |
| CCCCc1cc2cc(NS(C)(=O)=O)ccc2o1 | melting point | 105 to 106 °C |

###

| compound | melting point |
| --- | --- |
| CCCCCCCNC(=NC#N)Nc1cccnc1 | 90 to 91 °C |
| Cc1ccnc(NCCSCc2nc[nH]c2C)c1C(=O)O | 143 °C |
| CC(C)(C)[Si](O[C@@H]1CC(=O)C[C@H](O[Si](c2ccccc2)(c2ccccc2)C(C)(C)C)C1)(c1ccccc1)c1ccccc1 | 108 to 109 °C |
| CC(C)C[C@H](NC(=O)OCC1c2ccccc2-c2ccccc21)C(=O)OC(C)(C)C | 183 to 184 °C |
| COc1nc(C)n2nc(S(=O)(=O)Cl)nc2c1Cl | 100 to 101 °C |
| O=C(NCCN1CCN(c2cccc(Cl)c2)CC1)NC12CC3CC(CC(C3)C1)C2 | 136 to 137 °C |
| Cc1c(-c2cccnc2)sc2nc(N)[nH]c(=O)c12 | 280 to 290 °C |
| Cc1c(Sc2ccc(Cl)cc2)nn(-c2ccccc2)c(=O)c1C#N | 180 to 182 °C |
| O=c1ccc2cc(C(c3ccccc3)n3ccnc3)ccc2[nH]1 (stereo not given) | 227 °C |
| CNc1ccc(C(=O)OC)c(OC)n1 | 120 to 122 °C |

###

Measured melting point, listed per entry for reference.

| molecule | melting point |
| --- | --- |
| COc1ccc(-n2c(-c3cc(-c4ccccc4)c(N4CCOCC4)s3)nc3ccccc3c2=O)cc1 | 164 to 165 °C |
| O=C(N[C@@H](CO)C(=O)NCCCCOC1CCCCC1)c1ccc(C(=O)c2cccnc2)cc1 | 55 to 61 °C |
| CNC(=O)ON=C1SCC(=O)N(C)C1C (stereo not given) | 161 to 163 °C |
| O=C(c1ccc(C2=CCCCC2)cc1)N1Cc2cccn2Cc2ccccc21 | 66 °C |
| COC(=O)c1ccccc1-c1cc(-c2ccc(Cl)cc2)on1 | 85 to 86 °C |
| CSCC[C@H](NC(=O)c1cc(NC(Cn2ccnc2)c2ccc(F)cc2)ccc1CCc1ccc(F)cc1)C(=O)O (stereo not given in full) | 115 to 120 °C |
| COc1ccc2c(c1)N=C(NCc1cccnc1)c1ccccc1N2 | 160 to 161 °C |
| COc1ccc(-n2nc(OCC(F)(F)F)nc2-c2ccc(OC)nc2)cc1 | 82 to 83 °C |
| COc1ccc([C@@H]2C[C@H]2NC(=O)N(C)O)cc1OC (relative stereo) | 142 to 144 °C |
| O=C(CCCCNC(=O)c1cn2c3c(cccc13)CCC2)NOCc1ccccc1 | 154 to 155 °C |

###

assayMetric: melting point

| compound | result |
| --- | --- |
| CCc1ncc(CCCOc2c(C)cc(-c3noc(C(F)(F)F)n3)cc2C)s1 | 57 to 59 °C |
| CCOC(=O)c1cc2cc(O)ccc2n1C | 140 to 142 °C |
| C=CCSc1cc(C(=O)O)cc(N)c1-c1ccccc1 | 150 °C |
| CN1CCC(O)(c2cc(F)cc(Cl)c2)C1 (stereo unspecified) | 117 to 118 °C |
| Oc1ccc(CN(Cc2ccc(O)c3ncccc23)Cc2ccc(O)c3ncccc23)c2cccnc12 | 175 to 178 °C |
| CC(C)(C)CCc1ccc(C(=O)NNS(=O)(=O)c2ccccc2)cc1 | 168 to 169 °C |
| Clc1ccc2[nH]c3c(c2c1)CN(CCc1ccc2ccccc2n1)CC3 | 187 to 190 °C |
| O=C1CN(c2ccc(Cl)cc2)C(=O)N1S(=O)(=O)c1ccc(Cl)cc1 | 239 to 240 °C |
| C=CCOC(=O)CCC(C)(c1ccc(O)cc1)c1ccc(O)cc1 | 83 to 85 °C |
| C=CCOc1cccc(C(=O)O)c1 | 78 to 79 °C |
| CNC(=O)c1ccccc1Nc1nc(Nc2ccc3c(c2)CCN(CC(F)(F)F)CC3)ncc1Cl | 177 to 190 °C |
| CCNc1cccnc1N1CCN(C(=O)c2ccc(C(=O)N3CCN(CCO)CC3)cc2)CC1 | 152 to 153 °C |
| COc1cccc(CCNC(=O)N(C)O)c1OC | 83 to 85 °C |
| O=C(O)CCc1c(C(=O)O)[nH]c2cc(Br)cc(Br)c12 | 259 °C |
| CC(C)c1c(O)ccc2c1oc1ccc(C#N)cc12 | 180 to 182 °C |
| O=C(Cc1ccc2[nH]cc(CCN3C(=O)c4ccccc4C3=O)c2c1)NCc1ccccc1 | 165 to 166 °C |
| Cc1cc(C)c2c(c1C)OCC2c1cccc(Br)c1 (stereo unspecified) | 73 to 74 °C |
| COC(=O)c1cc(CCNC(=O)C(F)(F)F)ccc1OC | 61 to 63 °C |
| O=C(c1ccc(F)cc1)c1ccc(C(c2ccc(C(=O)c3ccc(F)cc3)cc2)(C(F)(F)F)C(F)(F)F)cc1 | 142 to 143 °C |
| CC(=O)c1cc2c(s1)SCCN(CCCCCl)C2=O | 132 to 134 °C |
| CC(C#N)c1cc(O)cc2cc(-c3ccc(O)cc3)oc12 (stereo unspecified) | 183 to 185 °C |

Sourced from a melting point compilation (Tetko et al.; mined from patent text by program, amines drawn as free bases though some values may be those of a salt)
